Entries and their measured counts minus background (counts per 20 min) follow.
Target: HIV-1LAI envelope gp120 labeled with radioactive iodine (HIV-1 LAI), P03377
Experiment: 125I-gp120, peptide array
Measured Metric: counts minus background (counts per 20 min)

Binder | Assay Result
GCEFENTVHKWISITEAL (modifications not checked) [CXCR4 273-290] | 264
FACWLPYYIGISIDSFIL (modifications not checked) [CXCR4 249-266] | 202
YAFVGEKFRNYLLVFFQK (modifications not checked) [CCR5 297-314] | 596
ICDRFYPNDLWVVVFQFQ (modifications not checked) [CXCR4 185-202] | 306
LPLLVMVICYSGILKTLL (modifications not checked) [CCR5 205-222] | 68
SRGSSLKILSKGKRGGHS (modifications not checked) [CXCR4 321-338] | 169
KEPCFREENANFNKIFLP (modifications not checked) [CXCR4 25-42] | 252
